assay: Log P by HPLC on reversed phase columns (EEC directive 79/831 Annex V.A8; methods [a], [b], [c]); format: physicochemical; conditions: reversed phase HPLC column; method [a]: LC-UV, acidic range, 0.1% formic acid in water and acetonitrile as eluent (linear gradient from 10% to 95% acetonitrile)
Measurement type: chromatographic logP

In the examples that follow, each entry is paired with its recorded chromatographic logP.
- N#Cc1cncn1CC(=O)c1cnc(Oc2ccc(Cl)cc2)cc1Cl [IX-91]: 3
- N#Cc1cncn1CC(=O)c1ccc(Oc2ccc(Br)nc2)nc1C(F)(F)F [IX-144]: 2.68
- N#Cc1cncn1CC(=O)c1ccc(F)cc1 [IX-100]: 1.58
- N#Cc1cncn1CC(=O)c1ccc(Oc2ccc(Br)cn2)cc1Cl [IX-77]: 2.94
- O=C(Cn1cncc1Cl)c1ccc(Oc2ccc(Cl)cc2)cc1 [IX-21]: 2.63
- CC(=O)c1cncn1CC(=O)c1cnc(Oc2ccc(C(F)F)cc2)cc1C(F)(F)F [IX-103]: 2.71
- N#Cc1cncn1CC(=O)c1ccc(Oc2ccc(Cl)cc2)cc1Br [IX-61]: 3.53
- O=C(Cn1cncc1F)c1ccc(Oc2ccc(C(F)F)cc2)nc1C(F)(F)F [IX-134]: 2.48

I. O=C(Cn1cncc1Cl)c1ccc(Oc2ccc(Cl)cc2)cc1Br [IX-34]
II. O=C(Cn1cncc1Br)c1ccc(F)cc1F [IX-121]
Prompt line: Field: lower chromatographic logP | Options: I / II Return value: the label identifying the chosen record.
Response line: II

// provenance: patent US20200031778A1
